Assay Info: Cytotoxicity against human HuH7 cells after 4 hrs by CellTitre-Blue assay
Assay type: cell-based, Huh-7

| Compound | CC50 at 4 h [µM] |
| --- | --- |
| COc1ccc2c(c1)[C@@H]1C[C@]1(C(=O)N1CC34CCC3(CN(CC(F)(F)F)C4)C1)Cn1c-2c(C2CCCCC2)c2ccc(C(=O)NS(=O)(=O)C(C)C)cc21 (stereo partly specified) | 35 |
| COc1ccc2c(c1)[C@@H]1C[C@]1(C(=O)N1CC34COCC3(CN(CC(F)(F)F)C4)C1)Cn1c-2c(C2CCCCC2)c2ccc(C(=O)NS(=O)(=O)C(C)C)cc21 (stereo partly specified) | 8 |
| CCOCCN1CC23CCC2(C1)CN(C(=O)[C@]12C[C@H]1c1cc(OC)ccc1-c1c(C4CCCCC4)c4ccc(C(=O)NS(=O)(=O)C(C)C)cc4n1C2)C3 (stereo partly specified) | 10 |
| COc1ccc2c(c1)[C@@H]1C[C@]1(C(=O)N1CC34CCC3(CN(CC(F)(F)F)C4)C1)Cn1c-2c(C2CCCCC2)c2ccc(C(=O)NS(=O)(=O)N(C)C)cc21 (stereo partly specified) | 26 |
| CCN1CC23COCC2(C1)CN(C(=O)[C@]12C[C@H]1c1cc(OC)ccc1-c1c(C4CCCCC4)c4ccc(C(=O)NS(=O)(=O)C(C)C)cc4n1C2)C3 (stereo partly specified) | 11 |
| COc1ccc2c(c1)[C@@H]1C[C@]1(C(=O)N1CC34CCC3(CN(C(C)=O)C4)C1)Cn1c-2c(C2CCCCC2)c2ccc(C(=O)NS(=O)(=O)C(C)C)cc21 (stereo partly specified) | 37 |

* * *

Assay Info: Inhibition of HCV genotype 1b wild type NS5B polymerase using biotinylated oligo dT12 primer as substrate after 4 hrs in presence of [3H]UTP
Design: species or system Hepatitis C virus subtype 1b
pIC50: −log10 of the molar value.

| Molecule | pIC50 |
| --- | --- |
| CCN1CC23COCC2(C1)CN(C(=O)[C@]12C[C@H]1c1cc(OC)ccc1-c1c(C4CCCCC4)c4ccc(C(=O)NS(=O)(=O)C(C)C)cc4n1C2)C3 (stereo partly specified) | 8.40 |
| COc1ccc2c(c1)[C@@H]1C[C@]1(C(=O)N1CC34COCC3(CN(C)C4)C1)Cn1c-2c(C2CCCCC2)c2ccc(C(=O)NS(=O)(=O)C(C)C)cc21 (stereo partly specified) | 8.40 |
| COc1ccc2c(c1)[C@@H]1C[C@]1(C(=O)N1CC34CCC3(CN(CC(F)(F)F)C4)C1)Cn1c-2c(C2CCCCC2)c2ccc(C(=O)NS(=O)(=O)N(C)C)cc21 (stereo partly specified) | 8.40 |
| COc1ccc2c(c1)[C@@H]1C[C@]1(C(=O)N1CC34COCC3(C1)CN(S(=O)(=O)C(C)C)C4)Cn1c-2c(C2CCCCC2)c2ccc(C(=O)NS(=O)(=O)C(C)C)cc21 (stereo partly specified) | 8.70 |
| COc1ccc2c(c1)[C@@H]1C[C@]1(C(=O)N1CC34CCC3(CN(C(=O)N(C)C)C4)C1)Cn1c-2c(C2CCCCC2)c2ccc(C(=O)NS(=O)(=O)C(C)C)cc21 (stereo partly specified) | 8.52 |
| COc1ccc2c(c1)[C@@H]1C[C@]1(C(=O)N1CC34CCC3(C1)CN(S(=O)(=O)C(C)C)C4)Cn1c-2c(C2CCCCC2)c2ccc(C(=O)NS(=O)(=O)C(C)C)cc21 (stereo partly specified) | 8.40 |
| COc1ccc2c(c1)[C@@H]1C[C@]1(C(=O)N1CC34CCC3(C1)CN(C1CC1)C4)Cn1c-2c(C2CCCCC2)c2ccc(C(=O)NS(=O)(=O)C(C)C)cc21 (stereo partly specified) | 8.30 |
| COc1ccc2c(c1)[C@@H]1C[C@]1(C(=O)N1CC34CNCC3(CN(C)C4)C1)Cn1c-2c(C2CCCCC2)c2ccc(C(=O)NS(=O)(=O)C(C)C)cc21 (stereo partly specified) | 8.30 |
| COc1ccc2c(c1)[C@@H]1C[C@]1(C(=O)N1CC34COCC3(CN(C(C)=O)C4)C1)Cn1c-2c(C2CCCCC2)c2ccc(C(=O)NS(=O)(=O)N(C)C)cc21 (stereo partly specified) | 8.70 |
| CNC(=O)N1CC23COCC2(C1)CN(C(=O)[C@]12C[C@H]1c1cc(OC)ccc1-c1c(C4CCCCC4)c4ccc(C(=O)NS(=O)(=O)C(C)C)cc4n1C2)C3 (stereo partly specified) | 8.52 |
| COc1ccc2c(c1)[C@@H]1C[C@]1(C(=O)N1CC34CCC3(CN(C(=O)N3CCOCC3)C4)C1)Cn1c-2c(C2CCCCC2)c2ccc(C(=O)NS(=O)(=O)N(C)C)cc21 (stereo partly specified) | 8.70 |
